Tested on: LXFL 529
assay.overview: NCI tumour cell line growth inhibition, 48 h
Activity calls are given as the source filed them. No stated cut-off is given here; in the data, active = GI50 up to about 1.1 µM and inactive = higher.
Respond only with the outcome that fits, drawn from active, inactive

Please state the recorded outcome for this compound: CC(=O)NC(Cc1ccccc1)C(=S)N1CCCC1 (stereo unspecified) inactive

Please state the recorded outcome for this compound: O=C(NC12CC3CCC1CC(C3)C2)[C@@H]1CCCN1C(=O)OCc1ccccc1 (stereo partly specified) inactive

Please state the recorded outcome for this compound: CC(=O)OC1CCn2nnc(CO[Si](C)(C)C(C)(C)C)c21 (stereo unspecified) inactive

Please state the recorded outcome for this compound: Fc1cccc2cc3ccc4cccc5ccc(c12)c3c45 inactive

Please state the recorded outcome for this compound: CC1CCSC(N(C(=O)N(C)c2ccccc2)c2ccccc2)=N1 (stereo unspecified) inactive

Please state the recorded outcome for this compound: O=C1/C(=C\c2ccccc2)C2/C(=C\c3ccccc3)C(=O)/C(=C\c3ccccc3)C2/C1=C\c1ccccc1 (stereo unspecified) active

Please state the recorded outcome for this compound: OC(CCl)CN1CC[N+]2(CC1)CC[N+]1(CCN(CC(O)CCl)CC1)CC2 (stereo unspecified) [PROSPIDIUM CHLORIDE] inactive

Please state the recorded outcome for this compound: ONc1ncnc2[nH]cnc12 inactive

Please state the recorded outcome for this compound: Nc1nnc2c(-c3ccccc3)n[nH]c2n1 inactive

Please state the recorded outcome for this compound: O=c1[nH]c(=O)n(C2CC(O)C(CO)O2)cc1C#Cc1ccc(F)cc1 (stereo unspecified) inactive

Please state the recorded outcome for this compound: Nc1nc(N)c(CCCCc2ccc([N+](=O)[O-])cc2)c(N)n1 inactive

* * *

Test system: PC-3
assay.overview: NCI tumour cell line growth inhibition, 48 h
Activity calls are given as the source filed them. Cut-off read from the data, not from the text of the source: active = GI50 up to about 1.1 µM and inactive = higher.
Field: GI50. Provide a value for each of the compounds that follow.

Which GI50 value belongs to C=CCc1c(C)nc(C)nc1N/N=C/C=C/c1ccccc1 ? 34.9 µM (inactive)

Which GI50 value belongs to Nc1nc(N)c(CCCCc2ccc([N+](=O)[O-])cc2)c(N)n1 ? 7.71 µM (inactive)

Which GI50 value belongs to C=CCOc1ccc(C(=N/NC(=O)c2ccccc2)/N=N/c2ccc([N+](=O)[O-])cc2)cc1OC ? > 100 µM (inactive)

Which GI50 value belongs to COc1ccc(-c2cc(C3CC3)nc(SCC(=O)O)c2C#N)cc1 ? 79.8 µM (inactive)

Which GI50 value belongs to COc1ccc(NC2=NCCO2)c2c1CCCC2 ? 26.7 µM (inactive)

Which GI50 value belongs to O=C(NCCO)c1c(O)c2ccccc2[nH]c1=O ? > 100 µM (inactive)

Which GI50 value belongs to O=C(O)CCC(NC(=O)c1ccc(Oc2nc3ccccc3nc2C(=O)O)cc1)C(=O)O (stereo not given) ? > 100 µM (inactive)

Which GI50 value belongs to O=P1(O)c2ccccc2CCc2ccccc21 ? > 100 µM (inactive)

Which GI50 value belongs to S=C(S)N1CCN(c2cccc(Cl)c2)CC1 ? 66.8 µM (inactive)

Which GI50 value belongs to CC1(C)CC[C@]2(C(=O)O)CC[C@]3(C)C(=CC[C@@H]4[C@@]5(C)CC[C@H](OC6OC(CO)C(O)C(O)C6O)C(C)(C)[C@@H]5CC[C@]43C)[C@@H]2C1 (stereo not given in full) ? 1.6 µM (inactive)

* * *

System: RXF 393
assay.overview: NCI tumour cell line growth inhibition, 48 h
The source made the active and inactive calls. No stated cut-off is given here; in the data, active = GI50 up to about 1.1 µM and inactive = higher.
Respond only with the outcome that fits, drawn from t (active), f (inactive)

Please state the recorded outcome for this molecule: CCCCOc1ccc(S(=O)(=O)N/C(=N\O)Nc2ccc(Cl)cc2)cc1 f

Please state the recorded outcome for this molecule: O=C(NC12CC3CC(CC(C3)C1)C2)C(=O)c1c[nH]c2ccc(Br)cc12 f

Please state the recorded outcome for this molecule: Nc1ncnc2c1ncn2C1CC(OCc2ccccc2[N+](=O)[O-])C(CO)O1 (centres undefined) f

Please state the recorded outcome for this molecule: O=C1CSC(=S)N1/N=C/c1ccc(Cl)c([N+](=O)[O-])c1 f

Please state the recorded outcome for this molecule: CN(C)C(=S)/N=c1\ss/c(=N\C(=S)N(C)C)n1-c1ccc(Cl)c(Cl)c1 f

Please state the recorded outcome for this molecule: Cc1cc(N(CCC#N)S(=O)(=O)c2ccccc2)ccc1/C=C1\N=C(c2ccc(Cl)cc2)OC1=O f

Please state the recorded outcome for this molecule: COC(=O)CSc1nnc(-c2ccc(O)c([N+](=O)[O-])c2)[nH]1 f

Please state the recorded outcome for this molecule: CCCC[S+]([O-])CC(CO)NC(=O)/C=C/c1c(C)[nH]c(=O)[nH]c1=O (centres undefined) f

Please state the recorded outcome for this molecule: CC[C@@]1(OC(=O)CN(C)C)C(=O)OCc2c1cc1n(c2=O)Cc2cc3ccccc3nc2-1 t

Please state the recorded outcome for this molecule: O=C(Nc1ccc2[nH]c3c(-c4ccccc4)nccc3c2c1)c1ccccc1[N+](=O)[O-] f

Please state the recorded outcome for this molecule: CSc1nc(NC2OCC(OC(C)=O)C(OC(C)=O)C2OC(C)=O)c(/N=C(\C)C(C)=O)c(=O)[nH]1 (centres undefined) f

Please state the recorded outcome for this molecule: O=C(O)C1C2C=CC(O2)C1C(=O)NCc1cccnc1 (centres undefined) f

Please state the recorded outcome for this molecule: C[C@]12CCC(=O)O[C@H]1CCCCO2 f

Please state the recorded outcome for this molecule: Cc1ccc(-c2n[nH]c(=O)n2/N=C\c2ccc([N+](=O)[O-])cc2)cc1 f

Please state the recorded outcome for this molecule: Cc1c2c(Cl)c3c(c(Cl)c2c(C)c2c(Cl)c4c(c(Cl)c12)C(c1ccccc1)(c1ccccc1)C4(c1ccccc1)c1ccccc1)C(c1ccccc1)(c1ccccc1)C3(c1ccccc1)c1ccccc1 f

Please state the recorded outcome for this molecule: CCc1cn2c(/C=N/N=C(N)N)c(-c3cc(C)c(Cl)cc3Cl)nc2s1 f

Please state the recorded outcome for this molecule: COc1ccc(CNC2=N/C(=C\c3ccccc3Cl)C(=O)N2C)cc1 f

Please state the recorded outcome for this molecule: CC(=O)OCC1OC(Nc2ccc3nc(C)n(-c4cccc(C)c4)c(=O)c3c2)C(OC(C)=O)C(OC(C)=O)C1OC(C)=O (centres undefined) f

Please state the recorded outcome for this molecule: COc1ccc(/C=c2/sc3n(c2=O)NC(c2ccc(Cl)cc2)NN=3)cc1 (centres undefined) f

Data origin: ChEMBL document CHEMBL1201862
